Cited source for all entries: patent US20250313612A1

Examples of binders with documented Neut IC50 (µg/ml) subtype B follow.
testedSystem: RSV F protein of subtype B (18537) on recombinant mKate-RSV (Respiratory syncytial virus subtype B …, UniProt P13843 26-574)
measurementDescription: cell-based or functional assay
The answer is to be given in µg/mL; state only the numeric part.

binder	Neut IC50 (µg/ml) subtype B, µg/mL
ADI-14539 (antibody, V domains shown, IgG; also called Antibody Number 99) VH: QVQLVESGGGVVQPGRSLRLSCAASGFAFRVYDIHWVRQAPGKGLEWVAVAWSDGRDEFYADSVKGRITISRDNSKNTVYLQMSSLRVADTAVYYCARDSGTLTGLPHDAFDVWGQGTTVTVSS VL: DIQLTQSPSTLSASVGDRVTITCRASQSITTRLAWYQQKLGKAPKLLVYKASTLEIGVPSRFSGRGSGTEFTLTISSLQPDDFATYYCHHYNSYSWTFGQGTKVDIK	0.302

Now look at this entry.
Prompt line: I am curious: what Neut IC50 (µg/ml) subtype B value has been reported for ADI-14541 (antibody, V domains shown) VH: EVQLVESGGGLVRPGGSLRLSCAASGFAFSSYSLHWVRQAPGRGLEWVASISAGSSFTDYAASVRGRFTISRNIANSLYLQMNRLRAEDTAVYYCARVIGDGTILGVVF VL: QSVLTQPPSVSGAPGQRVTISCTGGRSNIGAGYDVHWYQQLPGTAPKLLIYGNINRPSGVPDRFSGSKSGTSASLAITGLLAEDEADYYCQSYDSSLSVIFGGGTKLTVL ?
Response line: 0.106
